- Tested on: A549 NSCLC
- Experiment: NCI tumour cell line growth inhibition, 48 h
Measured GI50 accompanies every entry in the list below.

{"columns": ["Chemical Structure", "GI50"],
 "data": [
  ["CCC[CH2][Sn]([CH2]CCC)([O]C(=O)CN)[O]C(=O)CN", "> 100 µM"],
  ["C[C@]12CCc3sc(Nc4ccc(OC(F)(F)F)cc4)nc3C1=CC[C@@H]1[C@@H]2CC[C@]2(C)C(=O)CC[C@@H]12", "3.35 µM"],
  ["COc1cc(Nc2ncccc2C(=O)Nc2nc3ccc(F)cc3s2)cc(OC)c1OC", "3.11 µM"],
  ["Nc1ncc(-c2cnn(C3CCNCC3)c2)cc1-c1nc2cc(Cl)ccc2o1", "1.53 µM"]
]}

---

- Tested on: SF-295 CNS
- Experiment: NCI tumour cell line growth inhibition, 48 h
Observed Property: TGI

{"columns": ["Compound", "Target Desc", "Reported"],
 "data": [
  ["OCC12C=CC(C1)c1ccccc12 (stereo unspecified)", "SF-295 CNS", "> 100 µM"],
  ["CCOC(=O)c1sc(=S)n(-c2ccc(Cl)cc2)c1-n1cc(-c2ccccc2)c(C#N)c1N", "SF-295 CNS", "33.6 µM"],
  ["Cn1c(Cl)c(/C=C2/C(=O)Nc3ccccc32)c2ccccc21", "SF-295 CNS", "2.21 µM"],
  ["CCN1C(=O)/C(=C/c2c(Cl)[nH]c3cc(C)c(OC)cc23)c2ccccc21", "SF-295 CNS", "40.6 µM"],
  ["CC(=O)OCC1OC(N2C(c3ccccc3)=CC(c3cccs3)C(C#N)=C2S)C(OC(C)=O)C(OC(C)=O)C1OC(C)=O (stereo unspecified)", "SF-295 CNS", "> 100 µM"],
  ["CN(C)Cc1cc(C(F)(F)F)ccc1C(O)(c1ccccc1)c1ccccc1", "SF-295 CNS", "50 µM"],
  ["O=C1COc2cc(NC(=S)Nc3ccccc3)ccc2N1", "SF-295 CNS", "> 100 µM"],
  ["CCC(CC)NC1=C(NC(C)=O)C(=O)c2ccccc2C1=O", "SF-295 CNS", "> 50 µM"],
  ["COCCOC(=O)C1=C(O)c2ccccc2S(=O)(=O)N1C", "SF-295 CNS", "> 100 µM"],
  ["CC1(O)C(C)(O)C2(C)O[Te]3(OC12C)OC1(C)C(C)(O)C(C)(O)C1(C)O3 (stereo unspecified)", "SF-295 CNS", "> 100 µM"],
  ["Cc1ccc(S(=O)(=O)OC2CC=CC2)cc1", "SF-295 CNS", "> 100 µM"]
]}

---

- Tested on: SF-295 CNS
- Experiment: NCI tumour cell line growth inhibition, 48 h
Measured TGI accompanies every entry in the list below.
Observed Property: TGI (µM)

{"columns": ["Chemical Structure", "Sign", "Reported"],
 "data": [
  ["O=C1/C(=C\\c2ccc([N+](=O)[O-])cc2)N(S(=O)(=O)c2ccccc2)c2ncccc21", "=", 75.4],
  ["CN(C)CCNC(=O)c1cccc2c(=O)c3ccccc3oc12", "=", 98.9],
  ["Cc1ccc(S(=O)(=O)N=Nc2c(O)[nH]c3cc(O)c(C(=O)O)cc23)cc1", ">", 100],
  ["O=S(=O)(O)c1ccc(N=Nc2ccc3c(S(=O)(=O)O)cccc3c2O)c2ccccc12", ">", 100],
  ["CCC(=O)OC[n+]1ccc2c(C)c3[nH]c4ccccc4c3c(C)c2c1", "=", 1.88]
]}
